# inhibition of growth at 10 µM per record follows
# Test system: CCRF-CEM
# assay details: Antitumor activity against human CCRF-CEM cells assessed as cell growth inhibition at 10 uM incubated for 48 hrs by sulforhodamine B assay
# Format: functional
# measurement setup: read-out: GI
Answer with a number only, understood to be in %.

GET /values?readout=inhibition of growth at 10 µM&item= Nc1nn2cc(-c3ccc(F)cc3)[nH]c2c1/N=N/c1ccc(S(N)(=O)=O)cc1
33

GET /values?readout=inhibition of growth at 10 µM&item= Nc1nn2cc(-c3ccccc3)[nH]c2c1/N=N/c1ccc(S(N)(=O)=O)cc1
80

GET /values?readout=inhibition of growth at 10 µM&item= Nc1nn2cc(-c3ccc(Br)cc3)[nH]c2c1/N=N/c1ccc(S(N)(=O)=O)cc1
45

***
GET /values?readout=inhibition of growth at 10 µM&item= N#Cc1c(-c2ccc(Br)cc2)nc2c(/N=N/c3ccc(S(N)(=O)=O)cc3)c(N)nn2c1N
104

GET /values?readout=inhibition of growth at 10 µM&item= N#Cc1c(-c2ccccc2)nc2c(/N=N/c3ccc(S(N)(=O)=O)cc3)c(N)nn2c1N
21
